Reported values: pIC50 for Cytochrome P450 3A4 (Homo sapiens), one per item.
Field pIC50 (float): negative decimal logarithm of the concentration in molar.

Example entries begin here.
>>> measuredvalue("O=C(N[C@H]1c2ccccc2OC[C@H]1O)[C@H](Cc1ccccc1)C[C@H](O)CN1CCN(Cc2ccc(-c3ccccn3)o2)C[C@H]1C(=O)NCC(F)(F)F")
5.28
>>> measuredvalue("CC(C)(c1ccc(-c2ccncc2)o1)N1CCN(C[C@@H](O)C[C@@H](Cc2ccccc2)C(=O)N[C@H]2c3ccccc3OC[C@H]2O)[C@H](C(=O)NCC(F)(F)F)C1")
8.00
>>> measuredvalue("O=C(N[C@H]1c2ccccc2OC[C@H]1O)[C@H](Cc1ccccc1)C[C@H](O)CN1CCN(Cc2ccc(-c3cccnc3)o2)C[C@H]1C(=O)NCC(F)(F)F")
6.36

In the following, a different compound is considered.
Ask: Report value: pIC50, system: Cytochrome P450 3A4 (Homo sapiens), compound: O=C(N[C@H]1c2ccccc2OC[C@H]1O)[C@H](Cc1ccccc1)C[C@H](O)CN1CCN(Cc2ccc(-c3ccncc3)o2)C[C@H]1C(=O)NCC(F)(F)F
Sequence (P08684 whole entry): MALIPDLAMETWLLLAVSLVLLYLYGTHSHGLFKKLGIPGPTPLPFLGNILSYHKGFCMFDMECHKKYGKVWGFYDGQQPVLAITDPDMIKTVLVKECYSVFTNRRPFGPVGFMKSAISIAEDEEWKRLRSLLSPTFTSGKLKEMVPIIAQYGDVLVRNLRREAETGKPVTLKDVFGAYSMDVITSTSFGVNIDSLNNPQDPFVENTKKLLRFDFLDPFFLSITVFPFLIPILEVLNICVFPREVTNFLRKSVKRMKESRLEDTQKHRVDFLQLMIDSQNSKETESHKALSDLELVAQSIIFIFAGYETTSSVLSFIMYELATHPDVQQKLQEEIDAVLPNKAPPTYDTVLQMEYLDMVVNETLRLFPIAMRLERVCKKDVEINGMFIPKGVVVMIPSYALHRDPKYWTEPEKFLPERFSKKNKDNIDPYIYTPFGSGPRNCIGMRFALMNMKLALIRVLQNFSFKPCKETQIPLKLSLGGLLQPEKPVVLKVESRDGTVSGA
Reply: 6.49

====

target: Human immunodeficiency virus type 1 protease (Human immunodeficiency virus 1); assay: Inhibitory activity against HIV-1 Protease from wild-type NL4-3 virus
propertyLabel: pIC50
Field pIC50 (float): negative decimal logarithm of the concentration in molar.

>>> measuredvalue("O=C(N[C@H]1c2ccccc2OC[C@H]1O)[C@H](Cc1ccccc1)C[C@H](O)CN1CCN(Cc2ccc(-c3ccncc3)o2)C[C@H]1C(=O)NCC(F)(F)F")
10.10
>>> measuredvalue("CC(C)(c1ccc(-c2ccncc2)o1)N1CCN(C[C@@H](O)C[C@@H](Cc2ccccc2)C(=O)N[C@H]2c3ccccc3OC[C@H]2O)[C@H](C(=O)NCC(F)(F)F)C1")
10.30

In the following, a different compound is considered.
Ask: Report value: pIC50, system: Human immunodeficiency virus type 1 protease (Human immunodeficiency virus 1), compound: O=C(N[C@H]1c2ccccc2OC[C@H]1O)[C@H](Cc1ccccc1)C[C@H](O)CN1CCN(Cc2ccc(-c3cccnc3)o2)C[C@H]1C(=O)NCC(F)(F)F
Reply: 10.52

====

assay: Area under curve was determine after peroral administration at 10 mpk in Rhesus; format: ADME; settings: cercopithecidae, in vivo, po, 10 mg/kg
propertyLabel: AUC (µM·h)
Give the value in µM·h but do not write µM·h after it.

Ask: // Input: CC(C)(c1ccc(-c2ccncc2)o1)N1CCN(C[C@@H](O)C[C@@H](Cc2ccccc2)C(=O)N[C@H]2c3ccccc3OC[C@H]2O)[C@H](C(=O)NCC(F)(F)F)C1 . Output its AUC only.
Reply: 9.9

====

Collected IC95 values appear next to each entry.
system: MT4; assay: Compound was tested for their ability to inhibit spread of PI-resistant HIV-1 (strain Q-18C) viral infection in MT-4 human T-lymphoidcell; assay type: functional; details: read-out: CIC95
Give the value in µM but do not write µM after it.

>>> measuredvalue("O=C(N[C@H]1c2ccccc2OC[C@H]1O)[C@H](Cc1ccccc1)C[C@H](O)CN1CCN(Cc2ccc(-c3ccccn3)o2)C[C@H]1C(=O)NCC(F)(F)F")
0.015
>>> measuredvalue("O=C(N[C@H]1c2ccccc2OC[C@H]1O)[C@H](Cc1ccccc1)C[C@H](O)CN1CCN(Cc2ccc(-c3ccncc3)o2)C[C@H]1C(=O)NCC(F)(F)F")
0.031

Ask: Report value: IC95, system: MT4, molecule: CC(C)(c1cc2cnccc2o1)N1CCN(C[C@@H](O)C[C@@H](Cc2ccccc2)C(=O)N[C@H]2c3ccccc3OC[C@H]2O)[C@H](C(=O)NCC(F)(F)F)C1
Reply: 0.062
